Listed next: entries and their corresponding Residual [3H]PDBu binding.
Molecular target: Protein kinase C delta type (Homo sapiens, UniProt Q05655)
Sequence (Q05655 whole entry, looked up, the tested form may be a part): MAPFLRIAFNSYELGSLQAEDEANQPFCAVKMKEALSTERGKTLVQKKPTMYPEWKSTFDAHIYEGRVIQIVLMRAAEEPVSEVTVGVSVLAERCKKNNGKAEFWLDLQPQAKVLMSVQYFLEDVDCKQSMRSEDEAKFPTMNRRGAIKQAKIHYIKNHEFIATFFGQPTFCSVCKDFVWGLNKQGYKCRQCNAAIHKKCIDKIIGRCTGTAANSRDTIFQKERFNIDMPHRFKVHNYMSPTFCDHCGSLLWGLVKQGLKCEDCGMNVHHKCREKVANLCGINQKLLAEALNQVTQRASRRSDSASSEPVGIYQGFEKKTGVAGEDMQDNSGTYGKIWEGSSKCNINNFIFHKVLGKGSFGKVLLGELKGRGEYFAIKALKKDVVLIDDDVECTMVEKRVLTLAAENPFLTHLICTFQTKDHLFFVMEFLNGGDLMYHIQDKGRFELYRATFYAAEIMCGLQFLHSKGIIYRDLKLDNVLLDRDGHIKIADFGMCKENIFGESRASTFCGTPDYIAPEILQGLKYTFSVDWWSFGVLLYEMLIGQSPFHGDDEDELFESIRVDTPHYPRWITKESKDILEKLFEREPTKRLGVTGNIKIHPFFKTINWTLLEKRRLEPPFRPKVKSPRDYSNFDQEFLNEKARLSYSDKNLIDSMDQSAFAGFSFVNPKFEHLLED
Assay: Displacement of [3H]PDBu from recombinant human PKCdelta C1 domain expressed in baculovirus infected insect Sf9 cells assessed as residual radiolabeled binding at 100 uM after 10 mins by liquid scintillation counting analysis relative to control
Hi! Could you send only the number? It should be in %, unit omitted.

Solved entries:
* O=C(CC(CO)c1ccc(-c2ccccc2)cc1)OCc1ccccc1 (stereo not given) | 56.7
* CC(C)(C)C(=O)OCC(CO)c1ccc(OCc2ccccc2)cc1 (racemic) | 29.3
* O=C(CC(CO)c1cccc(OCc2ccccc2)c1)OCc1ccccc1 (stereo not given) | 52.5
* O=C(Cc1ccccc1)OCC(CO)c1ccc(OCc2ccccc2)cc1 (racemic) | 34.8

Consider the compound shown here: O=C(CC(CO)c1ccc(OCc2ccccc2)cc1)OCc1ccccc1 (stereo not given) What is its recorded Residual [3H]PDBu binding?
61.6

---

Target: Protein kinase C delta type (Homo sapiens, UniProt Q05655)
Experiment: Displacement of [3H]PDBu from recombinant human PKCdelta C1 domain expressed in baculovirus infected insect Sf9 cells at 100 uM after 10 mins by liquid scintillation counting analysis relative to control
Parameter: inhibition. Scope: all listed entries.
Reply numerically in %, unit not repeated.

Worked cases, answers included:
- O=C(Cc1ccccc1)OCC(CO)c1ccc(OCc2ccccc2)cc1 (single isomer, unassigned): 27.3
- CC(C)(C)C(=O)OCC(CO)c1ccc(OCc2ccccc2)cc1 (single isomer, unassigned; (+)): 34.6
- O=C(Cc1ccccc1)OCC(CO)c1ccc(OCc2ccccc2)cc1 (single isomer, unassigned; (-)): 26.3

Here's the next entry for you.
# get_value(readout= inhibition, system= Protein kinase C delta type (Homo sapiens, UniProt Q05655)) for CC(C)(C)C(=O)OCC(CO)c1ccc(OCc2ccccc2)cc1 (single isomer, unassigned)
36.3

---

Entries and their measured inhibition follow.
Target: Protein kinase C alpha type (Homo sapiens, UniProt P17252)
Experiment: Displacement of [3H]PDBu from recombinant human PKCalpha C1 domain expressed in baculovirus infected insect Sf9 cells at 100 uM after 10 mins by liquid scintillation counting analysis relative to control

// query inhibition value for entry O=C(Cc1ccccc1)OCC(CO)c1ccc(OCc2ccccc2)cc1 (single isomer, unassigned)
27.3%

Consider the compound CC(C)(C)C(=O)OCC(CO)c1ccc(OCc2ccccc2)cc1 (single isomer, unassigned; (+)) and give its measured inhibition.
34.6%

I am curious: what inhibition value has been reported for O=C(Cc1ccccc1)OCC(CO)c1ccc(OCc2ccccc2)cc1 (single isomer, unassigned; (-)) ?
26.3%

# get_value(readout='inhibition', item= CC(C)(C)C(=O)OCC(CO)c1ccc(OCc2ccccc2)cc1 (single isomer, unassigned) )
36.3%

---

Molecular target: Protein kinase C alpha type (Homo sapiens, UniProt P17252)
Experiment: Displacement of [3H]PDBu from recombinant human PKCalpha C1 domain expressed in baculovirus infected insect Sf9 cells assessed as residual radiolabeled binding at 100 uM after 10 mins by liquid scintillation counting analysis relative to control
Quick rule: Activity of at least 80% means Yes, below that means No.

Here are 8 compounds together with their reported answers.
* CCN(CC)C(=O)CC(CO)c1ccc(OCc2ccccc2)cc1 (centres undefined) | Yes
* CC(C)(C)C(=O)OCC(CO)c1ccc(OCc2ccccc2)cc1 (racemic) | No
* O=C(Cc1ccccc1)OCC(CO)c1ccc(OCc2ccccc2)cc1 (racemic) | No
* O=C(CC(CO)c1ccc(-c2ccccc2)cc1)OCc1ccccc1 (centres undefined) | No
* CN(Cc1ccccc1)C(=O)CC(CO)c1cccc(OCc2ccccc2)c1 (centres undefined) | No
* O=C(CC(CO)c1ccc(OCc2ccccc2)cc1)OCc1ccccc1 (centres undefined) | No
* O=C(CC(CO)c1cccc(OCc2ccccc2)c1)N1CCOCC1 (centres undefined) | Yes
* CN(Cc1ccccc1)C(=O)CC(CO)c1ccc(-c2ccccc2)cc1 (centres undefined) | No

Here is another compound to look at.
# bool: Activity of O=C(CC(CO)c1ccc(OCc2ccccc2)cc1)N1CCOCC1 (centres undefined) >= 80%
Yes

---

Biological target: Protein kinase C alpha type (Homo sapiens)
Assay: Displacement of [3H]PDBu from recombinant human PKCalpha C1 domain expressed in baculovirus infected insect Sf9 cells after 10 mins by liquid scintillation counting analysis
experimental-endpoint: IC50 (µM)
Could you give me the number in µM? Just the number is fine.

* CC(C)(C)C(=O)OCC(CO)c1ccc(OCc2ccccc2)cc1 (racemic) | 37.5

Please find the next compound below.
Which measured IC50 belongs to O=C(Cc1ccccc1)OCC(CO)c1ccc(OCc2ccccc2)cc1 (racemic) , tested on Protein kinase C alpha type (Homo sapiens)?
73.9

---

Molecular target: Protein kinase C alpha type (Homo sapiens)
Test: Displacement of [3H]PDBu from recombinant human PKCalpha C1 domain expressed in baculovirus infected insect Sf9 cells assessed as residual radiolabeled binding at 100 uM after 10 mins by liquid scintillation counting analysis relative to control
experimental-endpoint: Activity (%)
All answers are understood in %, so give the number only.

* CN(Cc1ccccc1)C(=O)CC(CO)c1ccc(OCc2ccccc2)cc1 (stereo not given) | 80.6

I am curious: what Activity value has been reported for CCN(CC)C(=O)CC(CO)c1ccc(-c2ccccc2)cc1 (stereo not given) ?
84.4

Fill in the blank: the reported Activity of O=C(CC(CO)c1cccc(OCc2ccccc2)c1)OCc1ccccc1 (stereo not given) is ____.
67.4

Would you kindly share the measured Activity for CCN(CC)C(=O)CC(CO)c1cccc(OCc2ccccc2)c1 (stereo not given) ?
90

Item under review: O=C(CC(CO)c1ccc(-c2ccccc2)cc1)N1CCOCC1 (stereo not given) . Reported Activity?
86.6

All values here come from ChEMBL document CHEMBL3632532.
